RUN_DESCRIPTION: CCTE_Shafer_MEA_dev_AB: CCTE's Alamar Blue Assay for Cytotoxicity in the Neural Network Formation Assay, Shafer Lab (AID 2284083);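 further: resazurin reduction fluorescence as viability of cultured neurons; twelve days of exposure from plating with re-dosing on DIV 5 and 9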
Method: CCTE_Shafer_MEA_dev assay is conducted using Axion Biosystems 48 well microelectrode array (MEA) plates and Maestro recording system. Each well of the MEA plate contains a grid of 16 microelectrodes embedded in the culture surface. Electrically active cells, such as neurons, can be cultured over the electrodes, and electrical activity in these cells can be recorded extracellularly. […]
Inconclusive results are not listed. Active and inactive are the calls of the source. How the source made its calls: active means hit-call score of the fitted dose curve at least 0.9, where 1 is the maximum; inconclusive means response in the unintended direction; inactive means score below 0.9.
Mark one answer only. Choices: y for active, n for inactive

Example entries begin here.
- MOLECULE: "CCC(C)(c1ccc(O)cc1)c1ccc(O)cc1"
  LABEL_CLASS: "n"
- MOLECULE: "Clc1ccc(C(c2ccccc2Cl)C(Cl)(Cl)Cl)cc1 (stereo not given)"
  LABEL_CLASS: "y"

Prompt: Outcome? ClC1=C(Cl)[C@]2(Cl)[C@@H]3[C@@H]4C[C@@H]([C@H]5O[C@@H]45)[C@@H]3[C@@]1(Cl)C2(Cl)Cl
Completion: y

Prompt: Next record, please: ClC1=C(Cl)[C@]2(Cl)[C@@H]3[C@@H](Cl)[C@H]4O[C@H]4[C@@H]3C1(Cl)C2(Cl)Cl
Completion: y

Prompt: Next record, please: O=S(=O)(O)C(F)(F)C(F)(F)C(F)(F)C(F)(F)C(F)(F)C(F)(F)F
Completion: n

----------
RUN_DESCRIPTION: ATG_DR4_LXR_CIS: Attagene CIS-FACTORIAL HepG2 Assay for human Liver X Receptor (LXR), DR4 submotif (AID 2282929)
CONDITION_SUMMARY: HepG2 Attagene DR4 cis-reporter, mRNA transcription; actives raise or lower the signal
Activity calls are given as the source filed them. Rule for the calls: active = hit-call score of the fitted dose curve at least 0.9, where 1 is the maximum; inactive = score below 0.9.
Mark one answer only. Choices: class 1 for active, class 0 for inactive

Example entries begin here.
- COMPOUND: "CCC(C)c1cc([N+](=O)[O-])cc([N+](=O)[O-])c1O (stereo not drawn)"
  LABEL_CLASS: "class 0"
- COMPOUND: "Nn1cnnc1"
  LABEL_CLASS: "class 0"
- COMPOUND: "CC(c1ccc(O)cc1)(c1ccc(O)cc1)c1ccc(O)cc1"
  LABEL_CLASS: "class 1"
- COMPOUND: "c1ccc(-c2ccccc2)cc1"
  LABEL_CLASS: "class 0"
- COMPOUND: "O=C(NC(=O)c1c(F)cccc1F)Nc1cc(Cl)c(OC(F)(F)C(F)F)c(Cl)c1"
  LABEL_CLASS: "class 0"
- COMPOUND: "CN(C)c1nc(=O)n(C2CCCCC2)c(=O)n1C"
  LABEL_CLASS: "class 0"
- COMPOUND: "Cc1ccccc1CO[C@@H]1C[C@@]2(C(C)C)CC[C@]1(C)O2"
  LABEL_CLASS: "class 0"
- COMPOUND: "Cc1cc(O)ccc1Cl"
  LABEL_CLASS: "class 0"

Prompt: Outcome? ClC(Cl)=C(c1ccc(Cl)cc1)c1ccc(Cl)cc1
Completion: class 1

Prompt: Next record, please: Cc1cc(-c2ccc(N)c(C)c2)ccc1N
Completion: class 0

Prompt: Next record, please: O=S(=O)(O)C(F)(F)C(F)(F)C(F)(F)C(F)(F)F
Completion: class 0

Prompt: Next record, please: CC#Cc1cc(C)nc(Nc2ccccc2)n1
Completion: class 1

Prompt: Next record, please: CO/C=C(/C(=O)OC)c1ccccc1COc1cccc(C(F)(F)F)n1
Completion: class 1

----------
RUN_DESCRIPTION: ATG_TA_CIS: Attagene CIS-FACTORIAL HepG2 Assay for human TA Basal Promoter (AID 2282964)
CONDITION_SUMMARY: HepG2 Attagene CIS-factorial TA basal promoter reporter; actives raise or lower the signal
Activity calls are given as the source filed them. How the source made its calls: active means hit-call score of the fitted dose curve at least 0.9, where 1 is the maximum; inactive means score below 0.9.
Mark one answer only. Choices: active, inactive

Prompt: Outcome? Cc1cccc(C)c1N
Completion: inactive

Prompt: Next record, please: CO/C=C(/C(=O)OC)c1ccccc1COc1cccc(C(F)(F)F)n1
Completion: inactive

Prompt: Next record, please: CN(C)c1nc(=O)n(C2CCCCC2)c(=O)n1C
Completion: inactive

Prompt: Next record, please: CCCCCCCCCC[N+](C)(C)CCCCCCCCCC
Completion: inactive

Prompt: Next record, please: CC#Cc1cc(C)nc(Nc2ccccc2)n1
Completion: active

----------
RUN_DESCRIPTION: APR_HepG2_CellLoss_24hr: Apredica 24-hour HepG2 Assay for Cell Loss (AID 2282908)
CONDITION_SUMMARY: high-content imaging
Activity calls are given as the source filed them. Rule for the calls: active = hit-call score of the fitted dose curve at least 0.9, where 1 is the maximum; inactive = score below 0.9.
Mark one answer only. Choices: 1.0 = active, 0.0 = inactive

Example entries begin here.
- RECORD_SMILES: "O=S(=O)(O)C(F)(F)C(F)(F)C(F)(F)C(F)(F)C(F)(F)C(F)(F)F"
  LABEL_CLASS: 0.0
- RECORD_SMILES: "CCSC(=O)N(CC)C1CCCCC1"
  LABEL_CLASS: 0.0
- RECORD_SMILES: "ClC1=C(Cl)[C@]2(Cl)[C@@H]3[C@@H](Cl)[C@H]4O[C@H]4[C@@H]3C1(Cl)C2(Cl)Cl"
  LABEL_CLASS: 1.0
- RECORD_SMILES: "C[C@]12CCC(=O)C=C1CC[C@@H]1[C@@H]2CC[C@@]2(C)[C@H]1CC[C@]2(C)O"
  LABEL_CLASS: 0.0
- RECORD_SMILES: "CCCN(CCC)N=O"
  LABEL_CLASS: 0.0
- RECORD_SMILES: "Cc1cc(O)ccc1Cl"
  LABEL_CLASS: 0.0

Next up:
Prompt: Outcome? ClC(Cl)=C(c1ccc(Cl)cc1)c1ccc(Cl)cc1
Completion: 1.0

----------
Read-out: Vascular cell adhesion molecule 1 (VCAM1), VCAM1 (gene 7412)
RUN_DESCRIPTION: BSK_hDFCGF_VCAM1: BioMAP Diversity Plus: hDFCGF Assay for Vascular cell adhesion molecule 1 (VCAM1) Biomarker Activity (AID 2283065)
CONDITION_SUMMARY: primary human foreskin fibroblasts; actives raise or lower the signal
The source made the active and inactive calls. How the source made its calls: active means hit-call score of the fitted dose curve at least 0.9, where 1 is the maximum; inactive means score below 0.9.
Mark one answer only. Choices: true (1) = active, false (0) = inactive

Prompt: Outcome? CO/C=C(/C(=O)OC)c1ccccc1COc1cccc(C(F)(F)F)n1
Completion: false (0)

Prompt: Next record, please: Nn1cnnc1
Completion: false (0)

----------
RUN_DESCRIPTION: CEETOX_H295R_ESTRADIOL: CeeTox H295R High-throughput Steroidogenesis Assay for Estradiol (AID 2283440);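 further: estradiol secreted into medium quantified by LC-MS/MS after dansyl derivatisation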
CONDITION_SUMMARY: actives raise or lower the signal
Activity calls are given as the source filed them. Rule for the calls: active = hit-call score of the fitted dose curve at least 0.9, where 1 is the maximum; inactive = score below 0.9.
Mark one answer only. Choices: active, inactive

- RECORD_SMILES: "Cc1ccc(O)c(C)c1"
  LABEL_CLASS: "inactive"
- RECORD_SMILES: "CCC(=O)O[C@H]1CC[C@H]2[C@@H]3CCC4=CC(=O)CC[C@]4(C)[C@H]3CC[C@]12C"
  LABEL_CLASS: "active"
- RECORD_SMILES: "Nc1ccc(-c2ccc(N)cc2)cc1"
  LABEL_CLASS: "inactive"

Prompt: Outcome? NS(=O)(=O)C(F)(F)C(F)(F)C(F)(F)C(F)(F)C(F)(F)C(F)(F)C(F)(F)C(F)(F)F
Completion: inactive

Prompt: Next record, please: Oc1ccc(Cl)cc1Cl
Completion: active

Prompt: Next record, please: O=C(NC(=O)c1c(F)cccc1F)Nc1cc(Cl)c(OC(F)(F)C(F)F)c(Cl)c1
Completion: inactive

----------
Read-out: Macrophage colony-stimulating factor (MCSF), CSF1 (gene 1435)
RUN_DESCRIPTION: BSK_hDFCGF_MCSF: BioMAP Diversity Plus: hDFCGF Assay for Macrophage colony-stimulating factor (MCSF) Biomarker Activity (AID 2283060)
CONDITION_SUMMARY: primary human foreskin fibroblasts; actives raise or lower the signal
The source made the active and inactive calls. Rule for the calls: active = hit-call score of the fitted dose curve at least 0.9, where 1 is the maximum; inactive = score below 0.9.
Mark one answer only. Choices: active, inactive

Example entries begin here.
- RECORD_SMILES: "CCC(=O)O[C@H]1CC[C@H]2[C@@H]3CCC4=CC(=O)CC[C@]4(C)[C@H]3CC[C@]12C"
  LABEL_CLASS: "active"
- RECORD_SMILES: "Cc1cccc([N+](=O)[O-])c1"
  LABEL_CLASS: "inactive"
- RECORD_SMILES: "CCC(C)(CC)c1cc(NC(=O)c2c(OC)cccc2OC)on1"
  LABEL_CLASS: "inactive"
- RECORD_SMILES: "CCC(C)(c1ccc(O)cc1)c1ccc(O)cc1"
  LABEL_CLASS: "inactive"
- RECORD_SMILES: "C[C@]12CCC(=O)C=C1CC[C@@H]1[C@@H]2CC[C@@]2(C)[C@H]1CC[C@]2(C)O"
  LABEL_CLASS: "inactive"

Prompt: Outcome? COc1ccc(O)c(C(C)(C)C)c1
Completion: inactive
